# Tested on: OVCAR3 cells
# procedure.summary: Cell proliferation study (Cell Titer Glo, 72 h)
# Type: cell-based
# test.parameters: Homo sapiens, OVCAR-3, luminescence, read-out: IC50, inhibitory effect on cellular proliferation
pIC50: −log10 of the molar value.
measurement.name: pIC50

Cc1nc2c(F)cc(-c3nc(NC4CCN(S(=O)(=O)C5CCN(CC6CCN(C7CN(c8cc9c(cc8F)C(=O)N(C8CCC(=O)NC8=O)C9=O)C7)CC6)CC5)CC4)ncc3F)cc2n1C(C)C (stereo not shown)	> 7.00
CC(C)N1CCOc2c(F)cc(-c3nc(Nc4ccc(S(=O)(=O)N5CCN(C6CC7(CCN(c8cccc9c8C(=O)N(C8CCC(=O)NC8=O)C9=O)CC7)C6)CC5)cc4)ncc3F)cc21 (stereo not shown)	< 5.00
Cc1nc2c(F)cc(-c3nc(Nc4ccc(S(=O)(=O)C5CCN(CC6CCN(c7cc8c(cc7F)C(=O)N(C7CCC(=O)NC7=O)C8=O)CC6)CC5)cc4)ncc3F)cc2n1C(C)C (stereo not shown)	6.00 to 7.00
CC(C)N1CCOc2c(F)cc(-c3nc(Nc4ccc(C5CCN(C6CC7(CCN(c8cc9c(cc8F)C(=O)N(C8CCC(=O)NC8=O)C9=O)CC7)C6)CC5)cn4)ncc3F)cc21 (stereo not shown)	< 5.00
CC(C)N1CCOc2c(F)cc(-c3nc(Nc4ccc(C5CCN(CCOCCOCCNc6cccc7c6C(=O)N(C6CCC(=O)NC6=O)C7=O)CC5)cn4)ncc3F)cc21 (stereo not shown)	< 5.00
CC(C)N1CCOc2c(F)cc(-c3nc(Nc4ccc(S(=O)(=O)N5CCN(CC6CCN(c7ccc8c(c7)C(=O)N(C7CCC(=O)NC7=O)C8=O)CC6)CC5)cc4)ncc3F)cc21 (stereo not shown)	< 5.00
C[C@@]1(O)CCC[C@H]1n1c(=O)ccc2cnc(Nc3ccc(S(=O)(=O)N4CCC5(CCN(C6CN(c7cc8c(cc7F)C(=O)N(C7CCC(=O)NC7=O)C8=O)C6)CC5)CC4)cc3)nc21 (stereo partly shown)	5.30 to 6.00
Cc1nc2c(F)cc(-c3nc(Nc4ccc(S(=O)(=O)N5CC(C(=O)N6CCC7(CC6)CCN(c6cccc8c6C(=O)N(C6CCC(=O)NC6=O)C8=O)CC7)C5)cc4)ncc3F)cc2n1C(C)C (stereo not shown)	< 5.00
C[C@@]1(O)CCC[C@H]1n1c(=O)ccc2cnc(Nc3ccc(S(=O)(=O)C4CCN(C5CC6(C5)CN(c5cc7c(cc5F)C(=O)N(C5CCC(=O)NC5=O)C7=O)C6)CC4)cc3)nc21 (stereo partly shown)	< 5.00
Cc1nc2c(F)cc(-c3nc(Nc4ccc(S(=O)(=O)N5CCN(CC6CCN(c7cccc8c7C(=O)N(C7CCC(=O)NC7=O)C8=O)CC6)CC5)cc4)ncc3F)cc2n1C(C)C (stereo not shown)	6.00 to 7.00

###

# target.of.assay: CDK2 protein (Homo sapiens)
# Construct: host or cells: OVCAR3
# procedure.summary: CDK2 protein degradation in OVCAR3 cells (Western blot)
# Format: cell-based
# test.parameters: 24 h, read-out: DC50 CDK2 (half-maximum degradation concentration)
measurement.name: DC50

C[C@@]1(O)CCC[C@H]1n1c(=O)c(C(F)F)cc2cnc(NC3CCN(S(=O)(=O)C4CCN(CC5CCN(C6CN(c7cc8c(cc7F)C(=O)N(C7CCC(=O)NC7=O)C8=O)C6)CC5)CC4)CC3)nc21 (stereo partly drawn) [Compound 37]	< 10 nM
Cc1nc2c(F)cc(-c3nc(NC4CCN(S(=O)(=O)C5CCN(CC6CC7(C6)CN(c6cc8c(cc6F)C(=O)N(C6CCC(=O)NC6=O)C8=O)C7)CC5)CC4)ncc3F)cc2n1C(C)C (stereo not drawn) [Compound 88]	101 to 200 nM
Cc1nc2c(F)cc(-c3nc(NC4CCN(S(=O)(=O)C5CCN(C6CCN(C7CN(c8cc9c(cc8F)C(=O)N(C8CCC(=O)NC8=O)C9=O)C7)CC6)CC5)CC4)ncc3F)cc2n1C(C)C (stereo not drawn) [Compound 83]	101 to 200 nM

###

Catalogue of pIC50 values
# System: OVCAR3 cells
# procedure.summary: Cell proliferation study (Cell Titer Glo, 72 h)
# Format: cell-based
# test.parameters: Homo sapiens, OVCAR-3, luminescence, read-out: IC50, inhibitory effect on cellular proliferation
pIC50: −log10 of the molar value.
measurement.name: pIC50

Cc1nc2c(F)cc(-c3nc(Nc4ccc(S(=O)(=O)C5CCN(C6CC7(CCN(c8cc9c(cc8F)C(=O)N(C8CCC(=O)NC8=O)C9=O)CC7)C6)CC5)cc4)ncc3F)cc2n1C(C)C (stereo not shown)	6.00 to 7.00
C[C@@]1(O)CCC[C@H]1n1c(=O)ccc2cnc(NC3CCN(S(=O)(=O)C4CCN(CC5CCC6(CC5)CCN(c5cc7c(cc5F)C(=O)N(C5CCC(=O)NC5=O)C7=O)CC6)CC4)CC3)nc21 (stereo partly shown)	6.00 to 7.00
CC(C)N1CCOc2c(F)cc(-c3nc(Nc4ccc(C5CCN(CCCCNC(=O)COc6cccc7c6C(=O)N(C6CCC(=O)NC6=O)C7=O)CC5)nc4)ncc3F)cc21 (stereo not shown)	6.00 to 7.00
Cc1nc2c(F)cc(-c3nc(Nc4ccc(S(=O)(=O)N5CCC6(CCN(C(=O)COc7cccc8c7C(=O)N(C7CCC(=O)NC7=O)C8=O)CC6)CC5)cc4)ncc3F)cc2n1C(C)C (stereo not shown)	5.30 to 6.00
CC(C)N1CCOc2c(F)cc(-c3nc(Nc4ccc(S(=O)(=O)N5CCN(C6CN(C7CCN(c8cccc9c8C(=O)N(C8CCC(=O)NC8=O)C9=O)CC7)C6)CC5)cc4)ncc3F)cc21 (stereo not shown)	5.30 to 6.00
C[C@@]1(O)CCC[C@H]1n1c(=O)ccc2cnc(NC3CCN(S(=O)(=O)N4CCN(CC5CCN(c6cc7c(cc6F)C(=O)N(C6CCC(=O)NC6=O)C7=O)CC5)CC4)CC3)nc21 (stereo partly shown)	5.30 to 6.00
C[C@@]1(O)CCC[C@H]1n1c(=O)ccc2cnc(NC3CCN(S(=O)(=O)NCCOCc4cn(CCOCCOCCNc5cccc6c5C(=O)N(C5CCC(=O)NC5=O)C6=O)nn4)CC3)nc21 (stereo partly shown)	5.30 to 6.00
Cc1nc2c(F)cc(-c3nc(NC4CCN(S(=O)(=O)C5CCN(CC6CCN(c7cc8c(cc7F)C(=O)N(C7CCC(=O)NC7=O)C8=O)CC6)CC5)CC4)ncc3F)cc2n1C(C)C (stereo not shown)	> 7.00
C[C@@]1(O)CCC[C@H]1n1c(=O)ccc2cnc(NC3CCN(S(=O)(=O)C4CCN(C5CCC6(CC5)CCN(c5cc7c(cc5F)C(=O)N(C5CCC(=O)NC5=O)C7=O)CC6)CC4)CC3)nc21 (stereo partly shown)	6.00 to 7.00
Cc1ccsc1C(=O)n1nc(Nc2ccc(S(=O)(=O)NCCOCc3cn(CCOCCOCCNc4cccc5c4C(=O)N(C4CCC(=O)NC4=O)C5=O)nn3)cc2)nc1N (stereo not shown)	< 5.00

###

# Tested on: OVCAR3 cells
# procedure.summary: Cell proliferation study (Cell Titer Glo, 72 h)
# Assay type: cell-based
# test.parameters: Homo sapiens, OVCAR-3, luminescence, read-out: IC50, inhibitory effect on cellular proliferation
measurement.name: IC50

C[C@@]1(O)CCC[C@H]1n1c(=O)ccc2cnc(NC3CCN(S(=O)(=O)CCCCCCCCCOc4cccc5c4C(=O)N(C4CCC(=O)NC4=O)C5=O)CC3)nc21 (stereo partly shown)	> 10000 nM
CC(C)N1CCOc2c(F)cc(-c3nc(Nc4ccc(S(=O)(=O)N5CCN(CC6CCN(c7cccc8c7C(=O)N(C7CCC(=O)NC7=O)C8=O)CC6)CC5)cc4)ncc3F)cc21 (stereo not shown)	> 10000 nM
Cc1nc2c(F)cc(-c3nc(NC4CCN(S(=O)(=O)C5CCN(C(=O)C6CCN(c7cc8c(cc7F)C(=O)N(C7CCC(=O)NC7=O)C8=O)CC6)CC5)CC4)ncc3F)cc2n1C(C)C (stereo not shown)	1000 to 5000 nM
C[C@@]1(O)CCC[C@H]1n1c(=O)ccc2cnc(NC3CCN(S(=O)(=O)C4CCN(C5CC(C6CCN(c7cc8c(cc7F)C(=O)N(C7CCC(=O)NC7=O)C8=O)CC6)C5)CC4)CC3)nc21 (stereo partly shown)	> 10000 nM
Cc1nc2c(F)cc(-c3nc(NC4CCN(S(=O)(=O)C5CN(CC6CCN(c7cc8c(cc7F)C(=O)N(C7CCC(=O)NC7=O)C8=O)CC6)C5)CC4)ncc3F)cc2n1C(C)C (stereo not shown)	101 to 1000 nM
Cc1nc2c(F)cc(-c3nc(Nc4ccc(S(=O)(=O)NCCOCCOCCNc5cc6c(cc5F)C(=O)N(C5CCC(=O)NC5=O)C6=O)cc4)ncc3F)cc2n1C(C)C (stereo not shown)	1000 to 5000 nM
C[C@@]1(O)CCC[C@H]1n1c(=O)c(Cl)cc2cnc(NC3CCN(S(=O)(=O)C4CCN(C5CC6(CCN(c7cc8c(cc7F)C(=O)N(C7CCC(=O)NC7=O)C8=O)CC6)C5)CC4)CC3)nc21 (stereo partly shown)	> 10000 nM
Cc1nc2c(F)cc(-c3nc(NC4CCN(S(=O)(=O)C5CCN(CC6CCN(c7cc8c(cc7F)C(=O)N(C7CCC(=O)NC7=O)C8=O)C6)CC5)CC4)ncc3F)cc2n1C(C)C (stereo not shown)	< 100 nM
Cc1nc2c(F)cc(-c3nc(Nc4ccc(S(=O)(=O)N5CCC6(CCN(C(=O)CNc7cc8c(cc7F)C(=O)N(C7CCC(=O)NC7=O)C8=O)CC6)CC5)cc4)ncc3F)cc2n1C(C)C (stereo not shown)	101 to 1000 nM
C[C@@]1(O)CCC[C@H]1n1c(=O)c(C(F)F)cc2cnc(NC3CCN(S(=O)(=O)C4CCN(CC5CCN(C6CN(c7cc8c(cc7F)C(=O)N(C7CCC(=O)NC7=O)C8=O)C6)CC5)CC4)CC3)nc21 (stereo partly shown)	< 100 nM

Data origin, for the record: patent US20240050577A1
